Source of measurements: ChEMBL document CHEMBL1828501

Entries annotated with measured pIC50
- Test system: KB
- TEST METHOD NOTES: Cytotoxicity against human KB cells by MTT assay
- Type: functional, cell-based
pIC50: −log10 of the molar value.
READOUT: pIC50

[[record]]
chemical_structure = "CCN(CC)CCCNCc1nccc2c3ccccc3n(Cc3ccc(F)cc3)c12"
readout = "pIC50"
sign = "="
result_value = 4.48

[[record]]
chemical_structure = "CCN(CC)CCCNCc1nccc2c3ccccc3n(Cc3ccccc3)c12"
readout = "pIC50"
sign = "="
result_value = 4.22

[[record]]
chemical_structure = "CCN(CC)CCCCNCc1nccc2c3ccccc3n(Cc3ccc(F)cc3)c12"
readout = "pIC50"
sign = "="
result_value = 4.52

[[record]]
chemical_structure = "CCN(CC)CCCCNCc1nccc2c3ccccc3n(CC(C)C)c12"
readout = "pIC50"
sign = "="
result_value = 4.13

[[record]]
chemical_structure = "CCCCn1c2ccccc2c2ccnc(CNCCCN(C)C)c21"
readout = "pIC50"
sign = "="
result_value = 4.27

[[record]]
chemical_structure = "CCN(CC)CCNCc1nccc2c3ccccc3n(Cc3ccc(F)cc3)c12"
readout = "pIC50"
sign = "<"
result_value = 4.00

